These entries and their values trace back to ChEMBL document CHEMBL3988442.

Tested on: Wolbachia pipientis
experimental_details: Anti-Wolbachia Cell-Based Screen
Type: functional
Parameters: scale not given: in the data most compounds retested in dose-response had high values
experimental_conditions: 5 µM
Among all 48,000 compounds or so, about 13,000 (27%) showed an effect of 50% or more. The list shows a part of the results.
Please respond with reported Percent Effect for every item in the list.
Give bare numbers, in %.

- molecule: "Cc1nc(CN(C)C2CCN(CC3CCCCC3)C2)no1 (stereo not drawn)"
  unit_spec: "%"
  Percent Effect: 12.52
- molecule: "Cc1nc(C)n(C2CCCN(C(=O)c3cccc4[nH]ncc34)C2)n1 (stereo not drawn)"
  unit_spec: "%"
  Percent Effect: 0.6187
- molecule: "CN(C)c1nccc(CNS(=O)(=O)c2cc(Cl)cc(Cl)c2)n1"
  unit_spec: "%"
  Percent Effect: -1.753
- molecule: "Cc1nc(CN(C)C2CCN(CC3CCC3)C2)no1 (stereo not drawn)"
  unit_spec: "%"
  Percent Effect: 98.61

Batch: Percent Effect for all items listed.
1. Cc1ccsc1-c1cc(C(=O)O)cc(S(=O)(=O)NCc2ccccn2)c1
2. CN(Cc1cc(=O)c(O)co1)C1CCCN(c2ccccc2)C1 (stereo not drawn)

Solution:
1: -12.11; 2: -2.476
